B1: IKZF1 (parent)
chain: HIKLHSGEKPFKCHLCNYACRRRD

# Variants of: B1
# assayProcedure: protein stability index of a GFP-peptide fusion (GPS, HEK-293T) (PSI 1-6); higher = more stable;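 further: lentivirally expressed fusions sorted by FACS into six bins by GFP to DsRed ratio, PSI derived from sequencing read proportions per bin multiplied by bin number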
# conditionNotes: c terminus: a fixed tail appended
metricName: protein stability index
Please state the value as a number alone, without comment.

Query block: Fill in the blank: the reported protein stability index of K12W is ____.
Result block: 1.59

Query block: Can you look up the measured protein stability index of K12S for me?
Result block: 1.95

Query block: Give its protein stability index value. Item: H5W
Result block: 1.8

Query block: Value lookup for protein stability index; key = R21M
Result block: 1.79

Query block: // lookup protein stability index for H1R
Result block: 2.13

Query block: Fill blank: measured protein stability index of the variant A19T is ____.
Result block: 1.81

Query block: What does the record list as protein stability index for H5E ?
Result block: 2.37

Query block: Any idea what its protein stability index is? The variant is I2P
Result block: 2.13

Query block: Need protein stability index of R22V , thanks.
Result block: 1.91

Query block: Using the record for F11L , report its protein stability index.
Result block: 2.12

Query block: protein stability index lookup needed for C16K , thanks.
Result block: 2.91

This collection of values is drawn from the supplement of paper PMC10567573.
